Value source: the supplement of paper PMC12632987

SYSTEM_UNDER_TEST: T1, TRAF2, Q12933
T1 chain: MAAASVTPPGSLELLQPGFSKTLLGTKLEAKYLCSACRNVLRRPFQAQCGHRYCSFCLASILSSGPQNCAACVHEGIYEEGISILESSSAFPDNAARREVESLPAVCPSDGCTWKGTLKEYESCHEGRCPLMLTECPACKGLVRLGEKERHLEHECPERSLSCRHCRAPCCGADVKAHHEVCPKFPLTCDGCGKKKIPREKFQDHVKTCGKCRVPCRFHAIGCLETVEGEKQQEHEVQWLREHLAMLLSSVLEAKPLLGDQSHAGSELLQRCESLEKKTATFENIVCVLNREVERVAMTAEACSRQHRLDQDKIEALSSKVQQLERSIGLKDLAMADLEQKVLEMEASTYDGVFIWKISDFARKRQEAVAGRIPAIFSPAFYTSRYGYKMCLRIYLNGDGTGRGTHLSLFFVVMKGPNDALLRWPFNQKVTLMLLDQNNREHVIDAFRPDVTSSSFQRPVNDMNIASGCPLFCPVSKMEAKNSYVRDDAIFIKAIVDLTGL
TEST_DESCRIPTION: median log2 fold change of GCK-ALFA target abundance (FLAG IP / Myc IP barcode read proportion) (log2 ratio); each designed protein is fused to an ALFA-tag nanobody in HEK293 cells to bring the named protein to FLAG-tagged glucokinase (GCK); Myc marks an untargeted standard; higher = target protein stabilised (more abundant)
PARTICULARS: target protein: 3xFLAG-MCP-GCK-ALFA reporter; HEK293 landing pad (RPLP)
Whole data set: some 1,800 sequences, median “median log2 fold change of GCK-ALFA target abundance (FLAG IP / Myc IP barcode read proportion)” near 0.14, cut for the lowest 2% near -0.84. The sample as a whole holds a higher share of the lowest values than the screen did.
ENDPOINT_LABEL: median log2 fold change
Give the figure only, with no unit attached.

QUERY: Read off the recorded median log2 fold change for traf2_out_13_95_1105 (protein) SAETAEKIMEVADEMLEKSEKLLEELLKIAKEKGKLVEEVQEALDLARYRSINEAIHKLKELAKKYPEFKEEFEATIKELEELKREAGRKVAEILKEEKE
RESULT: -0.477

QUERY: Quick one: give measured median log2 fold change for traf2_out_13_95_1154 (protein) SKELAEKIMEIADKMLDKSKEILKELLEIAKKKGKLEEEVQEALYLAETRSINEAIHKLKELAKKYPEFKEELEKAIKELEELKREAGKEVAKLIKEEKE
RESULT: -0.148

QUERY: Give a short answer stating reported median log2 fold change for traf2_out_17_60_1760 (protein) GPEERKKELAEEARRKIEEARRLVEEVRKKLEAGTLTADEAMDYLVELSEKRRELRRLAEELRAEGPEFEPLIEELERAIEEVERTMNEVGKELERLLAA .
RESULT: 0.112

QUERY: Consider the binder traf2_out_17_60_1763 (protein) GPEEEKEELKREARRAIEEARRLVEEVRAKLAAGTLTASEAMDWLVELTEKRRELERLLEEAEKKGEEMEELKRELERAIEEVRRTMNEVGKHLLELLEA and give its recorded median log2 fold change.
RESULT: -0.0301
